Biological target: T1, DLL3 (target in the Fab-Zap internalization assay) (UniProt Q9NYJ7 27-618, limits assumed)
T1 sequence (looked up): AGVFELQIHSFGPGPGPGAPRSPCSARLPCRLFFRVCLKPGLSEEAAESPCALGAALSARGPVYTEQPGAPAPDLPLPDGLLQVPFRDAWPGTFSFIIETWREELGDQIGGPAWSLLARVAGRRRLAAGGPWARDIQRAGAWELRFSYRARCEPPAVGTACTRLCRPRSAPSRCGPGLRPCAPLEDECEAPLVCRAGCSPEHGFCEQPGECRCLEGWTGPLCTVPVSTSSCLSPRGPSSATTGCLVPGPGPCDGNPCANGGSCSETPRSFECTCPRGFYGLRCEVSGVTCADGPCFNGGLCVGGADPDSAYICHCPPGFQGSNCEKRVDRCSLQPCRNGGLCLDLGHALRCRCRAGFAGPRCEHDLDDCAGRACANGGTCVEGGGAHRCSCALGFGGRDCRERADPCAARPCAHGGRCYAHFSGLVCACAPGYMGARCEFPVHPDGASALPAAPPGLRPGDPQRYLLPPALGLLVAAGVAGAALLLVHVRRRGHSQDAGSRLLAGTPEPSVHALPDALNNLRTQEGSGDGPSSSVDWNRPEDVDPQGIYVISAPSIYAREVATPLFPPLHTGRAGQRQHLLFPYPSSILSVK
Assay: cell-based or functional assay
MEASURED ATTRIBUTE: Percent Max Killing (Fab-Zap internalization assay, 10 ug/ml)

1) B2 (antibody, V domains shown, Purified hybridoma monoclonal antibody (Ablexis AlivaMab Kappa mice); format there not clear; also called 3-B2-A) VH: QVQLVQSGAEVKKPGASVKVSCKASGYTFTSYYMHWVRQAPGQGLEWMGIINPSGGSTSYAQKFRGRVTMTRDTSTSTVYMELSSLRSEDTAVYYCARGDYDILTDYYYNMDVWGQGTTVTVSS VL: DIQMTQSPSAMSASVGDRVTITCRASQGISNYLAWFQQKPGKVPKRLIYAASSLQSGVPSRFSGSGSGTEFTLTISSLQPEDFATYYCLQHNSYPYTFGQGTKLEIK : 71.4%
2) A18 (antibody, V domains shown) VH: QVTLRESGPALVKSTQTLTLTCTFSGFSLSTSGMCVSWIRQTPGKALEWLALIDWDDNKYYSTSLKTRLIISKDTSKNQVVLTMTNMEPVDTATYYCARIRGYSGSYDAFDIWGQGTMVTVSS VL: DIVMTQSPLSLPVTPGEPASISCRSSQSLLHSNGYNYLDWYLQKPGQSPHILLYLGSNRAPGVPDRFSGSGSGTDFTLKISRVEAEDVGVYYCMQALQTPFTFGPGTKVDIK : 67%
3) J8 (antibody, V domains shown) VH: QVHLVQSGAEVKKPGASVKVSCKASGYTFTIYYIHWVRQAPGQGLEWMGIINPSGGSTSYAQKFQGRVTMTRDTSTSTVYMELSSLRSEDTAVYYCSGNDYVDYVTTDYYGMDVWGQGTTVTVSS VL: DIQMTQSPSSLSASVGDRVTITCRASQGISNYLAWFQQKPGKAPKSLIYAASSLQSGVPSKFSGSGSGTDFTLTISSLQPEDFATYYCQQYNSSPYTFGQGTKLEIK : 64%
4) G16 (antibody, V domains shown) VH: QVQLVQSGAEVKKPGASVQVSCKASGYTFTSYYMHWVRQAPGQGLEWMGIINPSGGSTSYAQKFQGRVTMTRDTSTSTVYMELSSLRSEDTAVYYCARQGGAQWLVLAFDIWGQGTMVTVSS VL: EIVLTQSPGTLSLSPGERATLSCRASQSVSSYLAWYQQKPGQAPRLLIYGASSRATGIPDRFSGGGSGTDFTLTISRLEPEDFAVYYCQQYGSSPYTFGQGTKLEIK : 46%
5) C8 (antibody, V domains shown) VH: EVQLVESGGGLVQPGGSQRLSCAASGFTFSSYWMNWVRQAPGKGLEWVANIKEDGSEKYYVDSVKGRFTISRDNAKNSLYLQMNSLRAEDTAVYYCARDPGWAPFDYWGQGTLVTVSS VL: DIQMSQSPSSLSASVGDRVTITCRASQGISNYLAWFQQKPGKAPKSLIYAASSLQSGVPSKFSGSGSGTDFTLAISSLQPEDFATYYCQQYNSFPYTFGQGTTLEIK : 89%
6) L22 (antibody, V domains shown) VH: EVQLLESGGGLVQPGGSLRLSCAASGFTFSSYAMGWVRQTPGKGLEWVSTISGRGGDTYYADSVKGRFTISRDNSKNTLYLQMNSLRAEDTAIYYCAKERGLGFDYWGQGTLVTVSS VL: DIVMTQTPLSLPVTPGEPASISCRSSQSLLDSDDGNTYLDWYLQKPGQSPQLLIYTLSYRASGVPDRFSGSGSGTDFTLKISRVEAEDVGVYYCMQHLEFPLTFGGGTKVEIK : 82%
